Biological target: wild type CaMKII kinase domain (residues 1–283) (Drosophila, UniProt Q00168 1-283)
Sequence (Q00168 1-283): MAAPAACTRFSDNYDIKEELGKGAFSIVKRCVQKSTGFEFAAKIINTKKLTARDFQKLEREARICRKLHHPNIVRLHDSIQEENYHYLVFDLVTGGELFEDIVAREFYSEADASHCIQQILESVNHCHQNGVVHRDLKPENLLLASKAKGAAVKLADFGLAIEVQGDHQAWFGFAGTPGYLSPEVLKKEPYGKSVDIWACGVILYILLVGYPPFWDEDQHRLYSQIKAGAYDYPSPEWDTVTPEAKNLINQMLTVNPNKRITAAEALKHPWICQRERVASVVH
Assay: ITC
No end group written: not given here. MBP = not defined here
Quantity measured: dH (kcal/mol)
Give bare numbers, in kcal/mol.

Sample records with dH:
Binder: MBP-dEAG_(long) D789A (domain or fragment, Drosophila, UniProt Q02280 768-820, looked up) VFPKAPKLQASQATLARQDTIAEGGEVDSSPPSRDSRVVIEGAAVSSATVGPS
Unit spec: kcal/mol
dH: -12.7
--
Binder: MBP-dEAG_(long) R784A (domain or fragment, Drosophila, UniProt Q02280 768-820, looked up) VFPKAPKLQASQATLAAQDTIDEGGEVDSSPPSRDSRVVIEGAAVSSATVGPS
Unit spec: kcal/mol
dH: -10.3

In the following, a different binder is considered.
The reported dH of the binder MBP-dEAG_(long) (wild-type Drosophila EAG CaMKII-binding fragment, residues 768 to 820, fused to maltose-binding protein) (domain or fragment, UniProt Q02280 768-820, looked up, reading uncertain) {MBP}-VFPKAPKLQASQATLARQDTIDEGGEVDSSPPSRDSRVVIEGAAVSSATVGPS was -17.3
